B1: BTBD1 (parent)
chain: IVGFGLYGSIHGPTDYQVNIQIIE

variants of: B1; assay: protein stability index of a GFP-peptide fusion (GPS, HEK-293T) (PSI 1-6); higher = more stable; details: c terminus: a fixed tail appended;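 further: lentivirally expressed fusions sorted by FACS into six bins by GFP to DsRed ratio, PSI derived from sequencing read proportions per bin multiplied by bin number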
Measurement Type: protein stability index
Enter a number only.

Determine its reported protein stability index: `T14Y` 3.03

Determine its reported protein stability index: `G12S` 3.04

Determine its reported protein stability index: `D15S` 3.04

Determine its reported protein stability index: `G3A` 3.04
